tested on: U2932 parental; assay: cell proliferation relative to vehicle (% of vehicle); higher = less growth inhibition; conditions: 500 nM; 72 h
Measure Name: cell proliferation
// return a plain number; no unit text

Data request: # get_value(readout= cell proliferation, system= U2932 parental) for CN[C@@H](C)C(=O)N[C@H]1CN(C(=O)CC(C)C)CC[C@H]2CC[C@@H](C(=O)NC(c3ccccc3)c3ccccc3)N2C1=O
Data returned: 103

Data request: Please do the same for O=NN(CCCl)C(=O)NC1CCCCC1 [Lomustine] as well.
Data returned: 114

Data request: Another compound to check: COc1cc(Nc2ncc(F)c(Nc3ccc4c(n3)NC(=O)C(C)(C)O4)n2)cc(OC)c1OC [R406 (free base)]
Data returned: 92.8

Data request: Moving on to the next compound: COc1ccc2c(Oc3ccc(NC(=O)c4c(C)n(CC(C)(C)O)n(-c5ccccc5)c4=O)nc3)ccnc2c1
Data returned: 97

Data request: Next: OCCn1cc(-c2ccc3c(c2)CC/C3=N\O)c(-c2ccncc2)n1
Data returned: 103

Data request: Do the same for Cc1c(CN2CCN(C(=O)[C@H](C)O)CC2)sc2c(N3CCOCC3)nc(-c3cnc(N)nc3)nc12 please
Data returned: 33.4

Data request: Lookup CCCCCOC(=O)Nc1nc(=O)n([C@@H]2O[C@H](C)[C@@H](O)[C@H]2O)cc1F [Capecitabine]
Data returned: 98.3

Data request: Repeat with O=C(O)c1ccc(-c2c[nH]c3ncc(-c4ccccc4)cc23)cc1C1CCCC1
Data returned: 107
